These measurements were taken from patent US11098041B2.

# MEASURED ON: BTK C481S (His-TEV-hsBTK(328-659)(C481S)) (Homo sapiens (Human), UniProt Q06187, C481S)
# Sequence (Q06187 328-659 C481S): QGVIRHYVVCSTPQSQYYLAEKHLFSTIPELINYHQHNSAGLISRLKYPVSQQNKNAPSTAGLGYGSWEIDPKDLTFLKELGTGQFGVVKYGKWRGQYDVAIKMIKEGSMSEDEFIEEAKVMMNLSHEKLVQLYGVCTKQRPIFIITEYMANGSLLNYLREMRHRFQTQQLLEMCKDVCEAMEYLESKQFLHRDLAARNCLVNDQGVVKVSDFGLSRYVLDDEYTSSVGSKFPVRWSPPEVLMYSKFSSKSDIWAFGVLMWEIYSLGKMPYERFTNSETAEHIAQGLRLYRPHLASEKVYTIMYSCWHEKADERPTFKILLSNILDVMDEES
# ASSAY COMMENT: Assay B: microfluidic off-chip mobility shift assay against BTK C481S enzyme
# RECORDED CONDITIONS: BTK C481S mutant
Listing of entries alongside the reported IC50.

# COMPOUND, IC50
records = [
    ("CC(C)(C)c1nc(C(=O)NCc2ccc(-c3ccnc4[nH]c(-c5ccc(N6CCC(O)CC6)cn5)nc34)cc2F)no1", "< 100 nM"),
]

Please give the measured IC50 for this compound: "Cn1cc(-c2nc3c(-c4ccc(CNC(=O)c5ccc(C(C)(C)C)cc5)c(C(F)(F)F)c4)ccnc3[nH]2)cn1"
< 100 nM

Please give the measured IC50 for this compound: CC(C)(C)c1nc(C(=O)NCc2ccc(-c3ccnc4[nH]c(C5CCNC(=O)C5)nc34)cc2F)no1 (stereo not shown)
100 to 1000 nM

Please give the measured IC50 for this compound: "CCn1cc(C(=O)NCc2ccc(-c3ccnc4[nH]c(-c5cnn(C)c5)nc34)cc2F)cn1"
< 100 nM

###

Target or system full-length human BTK (Homo sapiens (Human), UniProt Q06187): recorded pIC50 listed per item.
pIC50: −log10 of the molar value.

Consider the reported pIC50 for these compounds:
# MOL SMILES, pIC50
measured = [
    ("CC(C)(C)c1nc(C(=O)NCc2ccc(-c3ccnc4[nH]c(-c5ccc(N6CCC(F)(F)CC6)cn5)nc34)cc2F)no1", "> 7.00"),
    ("C=CC(=O)Nc1cccc(-c2nc3nccc(-c4ccc(CNC(=O)c5nc(C(C)(C)C)no5)c(F)c4)c3[nH]2)c1", "> 7.00"),
    ("Cc1ccc(-n2ccn(-c3cccc(-c4ccnc5[nH]c(-c6ccc(C(=O)N7CCOCC7)cc6)nc45)c3CO)c2=O)cc1", "6.00 to 7.00"),
]

# ---- query compound ----
Which pIC50 is reported with full-length human BTK (Homo sapiens (Human), UniProt Q06187) for this entry: "Cn1cc(-c2nc3c(-c4ccc(CNC(=O)CCCC5CCCC5)c(F)c4)ccnc3[nH]2)cn1" ?
> 7.00

###

pIC50: −log10 of the molar value.
Target or system full-length human BTK (Homo sapiens (Human), UniProt Q06187): recorded pIC50 listed per item.

Consider the reported pIC50 for these compounds:
# MOL SMILES, VAL
records = [
    ("Cn1cc(-c2nc3c(-c4ccc(CNC(=O)c5nnc(C(C)(C)C)o5)c(F)c4)ccnc3[nH]2)cn1", "> 7.00"),
    ("COc1ccnc(-c2nc3c(-c4ccc(CNC(=O)c5noc(C(C)(C)C)n5)c(F)c4)ccnc3[nH]2)c1", "> 7.00"),
    ("CC(C)(C)c1noc(C(=O)NCc2ccc(-c3ccnc4[nH]c(-c5ccc(CN6CCOCC6)cn5)nc34)cc2F)n1", "> 7.00"),
    ("CC(C)(C)c1nc(C(=O)Nc2cccc(-c3ccnc4[nH]c(-c5ccc(C(=O)N6CCOCC6)cc5)nc34)c2CO)no1", "> 7.00"),
    ("Cn1cc(-c2nc3c(-c4ccc(C(C)(C)NC(=O)c5ccc(C(C)(C)C)cc5)c(F)c4)ccnc3[nH]2)cn1", "> 7.00"),
    ("CC(C)(C)c1noc(C(=O)NCc2ccc(-c3ccnc4[nH]c(-c5cccnc5)nc34)cc2F)n1", "> 7.00"),
]

Which pIC50 is reported with full-length human BTK (Homo sapiens (Human), UniProt Q06187) for this entry: "Cn1cc(-c2nc3c(-c4ccc(CNCc5cccnc5)c(F)c4)ccnc3[nH]2)cn1" ?
< 5.30
